test: small-molecule microarray binders of probe aNog, primary screen, biochemical, biotinylated probe, 635/667 nm fluorescence (AID 1115); details: higher = more signal;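 note: probe is biotinylated aNog protein used at 0.15 µg/mL for 1 h at 4 C; z-score combines 667 nm fluorescence of each spot with its signal to noise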
Some compounds, each annotated with its measured composite z-score.
propertyName: composite z-score

[[record]]
compound = "C=C(CC1([C@@H](NP(=O)(c2ccccc2)c2ccccc2)[C@H]2C[C@@H]2CCCC)CC1)c1ccccc1"
readoutnumber = 0.0585

[[record]]
compound = "CO[C@H]1O[C@H](CO)[C@@H](OC(=O)Nc2cccc(F)c2)[C@H](OC(=O)Nc2ccccc2)[C@@H]1OC(=O)Nc1ccccc1"
readoutnumber = 0.883

[[record]]
compound = "O=C1c2ccccc2[C@](Cc2ccccc2I)(C(=O)NCC(F)(F)F)[C@H](c2ccc(CO)cc2)N1Cc1ccccc1Cl"
readoutnumber = -0.239

[[record]]
compound = "COc1cc(Br)cc(C(O)C2C=CC3C(=O)N(C)C(=O)C3N2N2CCCCC2)c1OC (centres undefined)"
readoutnumber = 0.69

[[record]]
compound = "C=CCC(OC(C)=O)[C@@H]1[C@@H](N(Cc2cccc3ccccc23)C(=O)c2ccc(-c3ccccc3)cc2)c2cc(OCCCO)ccc2N1C(=O)c1ccc2ccccc2c1 (some centres undefined)"
readoutnumber = 0.223

[[record]]
compound = "COCCCNC(=O)[C@]1(CCC(=O)OC(C)(C)C)N=C(c2ccc(OCCCO)cc2)O[C@@H]1c1ccccc1CN=[N+]=[N-]"
readoutnumber = 2.04

[[record]]
compound = "COc1ccc([Si](C)(C)[C@@H]2[C@@H](CC(=O)N3CCC[C@H]3CO)O[C@]3(C(=O)N(c4ccccc4)c4ccccc43)[C@H]2C)cc1"
readoutnumber = -0.0047

[[record]]
compound = "CC(C)[Si](C#Cc1ccc(Oc2ccccc2)cc1)(O[Si](C#Cc1ccc(Oc2ccccc2)cc1)(C(C)C)C(C)C)C(C)C"
readoutnumber = -0.12

[[record]]
compound = "C=C(CCCC)/C(=C/C[C@@H](OC(C)=O)c1ccc(OCCO)cc1)c1cnc2ccccc2c1"
readoutnumber = -0.158

[[record]]
compound = "C=CCC(OC(C)=O)[C@@H]1[C@@H](N(Cc2ccc(-c3ccccc3)cc2)C(=O)Cc2ccc(OC)cc2)c2cc(OCCCO)ccc2N1C(=O)Cc1ccc2ccccc2c1 (some centres undefined)"
readoutnumber = -0.366

[[record]]
compound = "O=C(c1ccccc1)N1Cc2ccccc2C[C@@]2(COC(c3ccc(OCCCO)cc3)=N2)C1=O"
readoutnumber = -0.486

[[record]]
compound = "C=CCOC(=O)[C@H]1[C@@H]2C(=O)O[C@@H](c3ccccc3)[C@@H](c3ccccc3)N2[C@@H](c2ccc(OCCOC(=O)[C@H]3C[C@H]4C(=O)N[C@@H](CCCCN(C)C)C(=O)N4[C@H]3c3ccc(O)cc3)cc2)[C@]12C(=O)Nc1ccc(I)cc12"
readoutnumber = 1.14

[[record]]
compound = "[N-]=[N+]=Nc1ccccc1[C@H]1OC(c2ccc(OCCCO)cc2)=N[C@@]1(CCS(=O)(=O)c1ccccc1)C(=O)NCC(O)CO (some centres undefined)"
readoutnumber = -0.62

[[record]]
compound = "CO[C@H]1O[C@H](CO)[C@@H](OC(=O)Nc2ccc(Oc3ccccc3)cc2)[C@H](OC(=O)Nc2ccc3c(c2)OCO3)[C@H]1OC(=O)Nc1ccc2c(c1)OCO2"
readoutnumber = 0.414


====

experiment: small-molecule microarray binders of probe aEGFR, primary screen, biochemical, biotinylated probe, 635/667 nm fluorescence (AID 1097); settings: higher = more signal;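 note: probe is a biotinylated anti-EGFR antibody binding compounds printed on slides; score combines fluorescence near 667 nm and signal to noise of each spot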
So basically: composite z-score at -0.1 or higher? That is 1. Lower than -0.1? That is 0.

[[record]]
molecule = "C=C[C@H](CO[Si](CC)(CC)CC)N(Cc1ccc(OC(C)=O)c(OC)c1)S(=O)(=O)c1ccc(Br)cc1"
categorylabel = 1

[[record]]
molecule = "COC(=O)[C@@]1(Cc2ccc(F)cc2)[C@H]2c3cc(C(=O)N(C)C)n(Cc4ccccc4)c3C[C@H]2CN1C(=O)c1ccccc1"
categorylabel = 1

[[record]]
molecule = "C[N+](C)(C)CCCCNC(=O)[C@@H]1C[C@@H]2C(=O)N[C@@H](Cc3ccccc3)C(=O)N2[C@@H]1c1cccc(OCCO)c1"
categorylabel = 0

[[record]]
molecule = "C=CCC(OC(C)=O)[C@@H]1[C@@H](N(Cc2ccc(-c3ccccc3)cc2)C(=O)c2ccc(-c3ccccc3)cc2)c2cc(OCCCO)ccc2N1C(=O)Cc1ccc2ccccc2c1 (some centres not stated)"
categorylabel = 0

[[record]]
molecule = "C=C(COC)C(=O)CC[C@@H](OC(C)=O)c1ccc(CO)o1"
categorylabel = 1

[[record]]
molecule = "CCOC(=O)C[C@H]1[C@H](OC(=O)c2ccc(C(=O)c3ccccc3)cc2)[C@@H](NC(=O)c2ccccc2)c2cc(OCCCO)ccc2N1C(=O)c1ccc2ccccc2n1"
categorylabel = 0

[[record]]
molecule = "CCOC(=O)C[C@H]1[C@H](OC(=O)c2ccccc2-c2ccccc2)[C@@H](NC(=O)CC(C)C)c2cc(OCCCO)ccc2N1C(=O)Cc1ccc(OC)cc1"
categorylabel = 0

